method: IV pharmacokinetics
Design: species or system Sprague Dawley rats
reportedConditions: Sprague Dawley, in vivo, rat, 2 mg/kg, normal saline, read-out: Vss
measuredAttribute: Vd (L/kg)

[[record]]
compound = "CCN1CCC2(CC1=O)CN(Cc1ccc(OC)cc1)C2=O (single isomer, unassigned) [CL]"
measuredattribute = "Vd"
measured = 0.7

[[record]]
compound = "C[C@@H](O)[C@@H](C(=O)N(C)C)N1CC2(CCNC(=O)C2)C1=O (single isomer, unassigned) [CC]"
measuredattribute = "Vd"
measured = 0.5

[[record]]
compound = "COc1ccc(CN2C[C@@]3(CCNC(=O)C3)C2=O)cc1 [Compound AA-2]"
measuredattribute = "Vd"
measured = 0.54

[[record]]
compound = "C[C@@H](O)[C@@H](C(=O)NCc1ccccc1)N1CC2(CCNC(=O)C2)C1=O (single isomer, unassigned) [CB]"
measuredattribute = "Vd"
measured = 1.2


----------
method: Oral pharmacokinetics (plasma, brain, CSF)
Format: in vivo, Sprague Dawley rats
reportedConditions: rat, per os, 10 mg/kg, CSF
# binarize CSF Cmax: threshold 1000 ng/mL inclusive, high side met, low side not met

[[record]]
compound = "COc1ccc(CN2CC3(CCNC(=O)C3)C2=O)cc1 (racemic)"
answerlabel = "met"

[[record]]
compound = "COc1ccc(CN2CC3(CCN(C)C(=O)C3)C2=O)cc1 (single isomer, unassigned)"
answerlabel = "met"

[[record]]
compound = "CCN1CCC2(CC1=O)CN(Cc1ccc(OC)cc1)C2=O (single isomer, unassigned)"
answerlabel = "not met"

[[record]]
compound = "C[C@@H](O)[C@@H](C(=O)N(C)C)N1CC2(CCNC(=O)C2)C1=O (single isomer, unassigned)"
answerlabel = "not met"

[[record]]
compound = "C[C@@H](O)[C@@H](C(=O)NCc1ccccc1)N1CC2(CCNC(=O)C2)C1=O (single isomer, unassigned)"
answerlabel = "not met"

[[record]]
compound = "COc1ccc(CN2C[C@@]3(CCNC(=O)C3)C2=O)cc1"
answerlabel = "met"


----------
method: Oral pharmacokinetics (plasma, brain, CSF)
Format: in vivo, Sprague Dawley rats
reportedConditions: Sprague Dawley, plasma, po; rat, per os, 10 mg/kg
Listed here: items and their measured bioavailability.
measuredAttribute: bioavailability (%)

[[record]]
molecule = "COc1ccc(CN2CC3(CCN(C)C(=O)C3)C2=O)cc1 (single isomer, unassigned)"
scaleunit = "%"
measured = 97

[[record]]
molecule = "C[C@@H](O)[C@@H](C(=O)NCc1ccccc1)N1CC2(CCNC(=O)C2)C1=O (single isomer, unassigned)"
scaleunit = "%"
measured = 5

[[record]]
molecule = "COc1ccc(CN2CC3(CCNC(=O)C3)C2=O)cc1 (racemic)"
scaleunit = "%"
measured = 57

[[record]]
molecule = "C[C@@H](O)[C@@H](C(=O)N(C)C)N1CC2(CCNC(=O)C2)C1=O (single isomer, unassigned)"
scaleunit = "%"
measured = 7


----------
method: Oral pharmacokinetics (plasma, brain, CSF)
Assay type: in vivo, Sprague Dawley rats
reportedConditions: Sprague Dawley, plasma, po; rat, per os, 10 mg/kg
Protocol: In another experiment, Sprague Dawley rats were dosed per os using a normal saline formulation containing 10 mg/kg of the compounds identified in the table below. Plasma, brain, and CSF samples were analyzed at various time points over a 24 hour period. The table below summarizes the results of the oral pharmacokinetics.
Listed here: items and their measured bioavailability.
measuredAttribute: bioavailability (%)

[[record]]
compound = "COc1ccc(CN2C[C@]3(CCNC(=O)C3)C2=O)cc1"
measured = 90

[[record]]
compound = "COc1ccc(CN2C[C@@]3(CCNC(=O)C3)C2=O)cc1"
measured = 100

[[record]]
compound = "CCN1CCC2(CC1=O)CN(Cc1ccc(OC)cc1)C2=O (single isomer, unassigned)"
measured = 37

